Assay: Safety index.
Type: toxicity
Conditions: read-out: Safety index
Assay readout: selectivity ratio
Simply state the number, no unit and no words.

Examples with answers:
INSERT INTO assay_data (structure_as_smiles, data_value) VALUES
  ('Cn1c([N+](=O)[O-])cnc1-c1ccc(F)cc1', 0.53),
  ('Cc1nc(C)n(CCO)c1[N+](=O)[O-]', 6.2),
  ('Cn1c(CO)nc(CCO)c1[N+](=O)[O-]', 2),
  ('Cc1nc(CCO)c([N+](=O)[O-])n1C', 71),
  ('Cc1nc(Br)c([N+](=O)[O-])n1C', 0.65),
  ('COc1cc(C(=O)OCCn2c([N+](=O)[O-])cnc2C)cc(OC)c1OC', 2.5),
  ('Cc1nc(C)n(C)c1[N+](=O)[O-]', 3.1),
  ('CC(=O)OCCc1nc(C)n(C)c1[N+](=O)[O-]', 14);

Data request: Which selectivity ratio value belongs to "Cc1nc(COC(N)=O)n(C)c1[N+](=O)[O-]" ?
Data returned: 20

Data request: Which selectivity ratio value belongs to "CC(=O)Oc1cc(C(=O)OCc2ncc([N+](=O)[O-])n2C)cc(OC(C)=O)c1OC(C)=O" ?
Data returned: 0.6

Data request: Which selectivity ratio value belongs to "CC(=O)Oc1cc(C(=O)OCCn2c([N+](=O)[O-])cnc2C)cc(OC(C)=O)c1OC(C)=O" ?
Data returned: 26

Data request: Which selectivity ratio value belongs to "Cc1nc(CCOC(=O)C(C)(C)C)c([N+](=O)[O-])n1C" ?
Data returned: 1.4

Data request: Which selectivity ratio value belongs to "Cn1c(-c2ccc(F)cc2)nc(CCO)c1[N+](=O)[O-]" ?
Data returned: 0.65
